Target: T1, murine CD300E-Fc (mouse)
T1 construct: mouse IgG2a-Fc fusion (R&D Systems); the entry is the whole fusion chain; also called mCD300E; Mouse CD300E-Fc
T1 chain: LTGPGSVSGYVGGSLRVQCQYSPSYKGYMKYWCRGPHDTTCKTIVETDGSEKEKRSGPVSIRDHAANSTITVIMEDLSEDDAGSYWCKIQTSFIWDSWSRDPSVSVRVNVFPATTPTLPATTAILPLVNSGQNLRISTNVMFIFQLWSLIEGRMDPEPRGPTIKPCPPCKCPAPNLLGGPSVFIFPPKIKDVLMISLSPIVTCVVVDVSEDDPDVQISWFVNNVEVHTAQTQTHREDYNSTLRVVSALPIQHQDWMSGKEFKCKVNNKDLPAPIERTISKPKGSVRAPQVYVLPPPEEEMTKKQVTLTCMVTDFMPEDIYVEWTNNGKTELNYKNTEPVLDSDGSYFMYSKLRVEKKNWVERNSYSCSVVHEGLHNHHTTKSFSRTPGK
Test: SPR (Carterra LSA), antibody immobilised, Fc fusion at 300 or 600 nM

{"binder": "anti-CD300LB antibody CD-14 (antibody, V domains shown) VH: QIQLVQSGPELKKPGETVKISCKASGYTFTDYSLHWVKQTPEKNLKWMAWINTETGAPTYADDFKGRFAFSLETSSNTAYLLINNLKNEDTATYFCALTMVNYWGQGTTLTVSS VL: DIVMTQSQKFMSTSVGDRVSVTCKASQNVGIRVAWHQQKPGQSPKTLIYSTSYRYSGVPDRFTGSGSGTEFILTISNVQSEDLAEYFCQQYNSYPYTFGGGTKLEIK", "SPR binding (control subtracted)": 3.6}
{"binder": "anti-CD300LB antibody CD-10 (antibody, V domains shown) VH: QVQLQQSGPELVRPGVSVKISCKGSGYTFTDYAMHWVKQSHVRSREWIGVIGTYNGHTNYNQKFKGKATMTVDKSSSTAYLELARLTSEDSAIYYCARSGSYYYSMDYWGQGTSVTVSS VL: QIVLTQSPAIMSASPGEKVTMTCSASSSVNYMHWYQQKSGTSPKRWIYDTSKLSSGVPARFSGSGSGTSYSLTISTMEAEDAATYYCQQWSSNPPMTFGGGTKLEIK", "SPR binding (control subtracted)": 11.3}
{"binder": "anti-CD300LB antibody CD-12 (antibody, V domains shown) VH: QIQLVQSGPELKKPGETVKISCKASGYTFTDYSMHWVRQAPGKGLKWMAWINTETGEATHADDFKGRFDFSLDTSASTAYLQIKNLKNEDTGIYFCVCYGSSYGMDYWGQGTSVTVSS VL: DIVLTQSPASLPVSLGQRATISCRASKSVRTSGASYMHWYQQKPGQPPKLLIYLASNLKSGVPTRFSGSGSGTDFTLNIHPVEEEDAATYYCQHNREVPPTFGGGTKLEIK", "SPR binding (control subtracted)": -0.6}
{"binder": "anti-CD300LB antibody CD-11 (antibody, V domains shown) VH: QIQLVQSGPEVKKPGETVKISCKASGYTLTDYSMHWVMQTPGTGLKWMAWMNTETGEPTYADDFKGRFAFSLETSAGTAYLQIDNLKNEDTATYFCATYGKSYGMKYWGQGTSVTVSS VL: DIVLTQSPPSLAVSLGQRATISCRATKSVSPYLHWYQQTPGQPPKLLIYLASNLDSGVPARFSGSGSGTDFTLNIHPVEEEDAATYYCQHNKELPPTFGGGTRLEIK", "SPR binding (control subtracted)": 7.4}
